- Tested on: human embryonic stem cells (H9 line)
- test protocol: High content screening assay: cell number (proliferative response)
- Format: cell-based
- run parameters: cell number in the wells analysed for SOX-17 expression
property label: Proliferative Response Total cells

Worked examples, 5 molecules total:
What measured Proliferative Response Total cells goes with O=C1NC(=O)C(c2cn(CCOCCOCCNC3CCCc4ccccc43)c3ccccc23)=C1c1cn(CCNC2CCCc3ccccc32)c2ccccc12 (stereo not shown) [Compound 144] ?
7990

What measured Proliferative Response Total cells goes with O=C1NC(=O)C2=C1c1cn(c3ncccc13)CCOCCOCCn1cc2c2cccnc21 [Compound 180] ?
3

What measured Proliferative Response Total cells goes with O=C1NC(=O)C(c2nn(CCO)c3ccccc23)=C1c1cn(-c2cncnc2)c2ccccc12 [Compound 226] ?
9716

What measured Proliferative Response Total cells goes with COc1ccccc1C1=C(c2cn(-c3ccc4ccccc4c3)c3ncccc23)C(=O)NC1=O [Compound 23] ?
88

What measured Proliferative Response Total cells goes with O=C1NC(=O)C(c2cn(CCCO)c3ncccc23)=C1c1cccs1 [Compound 17] ?
158

New cases:
What measured Proliferative Response Total cells goes with CCN1CCOCCn2cc(c3ccccc32)C2=C(C(=O)NC2=O)c2cn(c3ccccc23)CCOCC1 [Compound 15] ?
10533

What measured Proliferative Response Total cells goes with O=C1NC(=O)C2=C1c1cn(c3ccccc13)CCOCCOCCOCCn1cc2c2ccccc21 [Compound 163] ?
1313

What measured Proliferative Response Total cells goes with CN(C)c1cccc(-n2cc(C3=C(c4nn(CCO)c5ccccc45)C(=O)NC3=O)c3ccccc32)c1 [Compound 145] ?
4914

What measured Proliferative Response Total cells goes with O=C1NC(=O)C2=C1c1cn(c3ncccc13)CCOCCOCCOCCn1cc2c2cccnc21 [Compound 2] ?
10963

What measured Proliferative Response Total cells goes with CN(C)c1ccc(-n2cc(C3=C(c4nn(CCO)c5ccccc45)C(=O)NC3=O)c3cc(Cl)ccc32)cn1 [Compound 148] ?
12243

###

Measured HNF-3b Expression Fold over Wnt 3a/AA control, listed per entry.
- Tested on: HNF-3beta expression in human embryonic stem cells (H9 line)
- test protocol: High content screening assay: HNF-3beta protein expression (differentiation)
- Assay type: cell-based
- run parameters: total intensity normalised to Wnt 3a/AA control
- Procedure: Maintenance of human embryonic stem cells (H9 line) was conducted as described in Example 1. Colonies of cells were maintained in an undifferentiated, pluripotent state with passage on average every four days. […] The human embryonic stem cell lines used were maintained at passage numbers less than passage 50 and routinely evaluated for normal karyotypic phenotype and absence of mycoplasma contamination. […]
Give the value, in units of fold, as a plain number.

Request - read-out HNF-3b Expression Fold over Wnt 3a/AA control | tested on HNF-3beta expression in human embryonic stem cells (H9 line) | compound O=C1NC(=O)C2=C1c1cn(c3ncccc13)CCOCCOCCOCCn1cc2c2cccnc21 [Compound 2]
1.0087

Request - read-out HNF-3b Expression Fold over Wnt 3a/AA control | tested on HNF-3beta expression in human embryonic stem cells (H9 line) | compound O=C1NC(=O)C2=C1c1cn(c3ccccc13)CCOCCOCCOCCn1cc2c2ccccc21
3.1115

Request - read-out HNF-3b Expression Fold over Wnt 3a/AA control | tested on HNF-3beta expression in human embryonic stem cells (H9 line) | compound O=C1CCCCn2cc(c3cccnc32)C2=C(C(=O)NC2=O)c2cn(c3ncccc23)CCCC1
0.5866

New cases:
Request - read-out HNF-3b Expression Fold over Wnt 3a/AA control | tested on HNF-3beta expression in human embryonic stem cells (H9 line) | compound O=C1NC(=O)C2=C1c1cn(c3ncccc13)CCOCCOCCOCCn1cc2c2cccnc21 [Compound 167]
0.9515

###

- Test system: cells expressing pluripotency markers derived from human embryonic stem cells
- test protocol: MTS viability (toxicity) assay of cells expressing pluripotency markers
- Assay type: cell-based
- run parameters: MTS viability assay raw reading, replicate 2
- Protocol: Derivation and maintenance of cells expressing pluripotency makers was conducted as has been described in Example 2. […] Screening was conducted using test compounds from a proprietary library of small molecules selected for their ability to inhibit GSK-3B enzyme activity. […] For assay, cells expressing pluripotency markers were washed, counted, and plated in normal culture medium at a seeding density of 20,000 cells per well in 96-well clear-bottom, dark-well plates (Costar). […]
property label: Raw data (duplicate), second replicate
Write no unit; give the number alone.

Request - read-out Raw data (duplicate), second replicate | tested on cells expressing pluripotency markers derived from human embryonic stem cells | compound O=C1CCCCn2cc(c3cccnc32)C2=C(C(=O)NC2=O)c2cn(c3ncccc23)CCCC1 [Compound 11]
0.638

###

- System: human embryonic stem cell line H1
- test protocol: Dose titration secondary assay: cell number, H1
- Format: cell-based
- run parameters: Homo sapiens, Embryonic stem cell, Conc 5 μM, positive control (Wnt3a/Activin A) normalized to 1.000
property label: activity at 5 µM (%)
Give the value, in units of %, as a plain number.

Worked examples, 3 compounds total:
What measured activity at 5 µM goes with CN(C)c1cccc(-n2cc(C3=C(c4nn(CCO)c5ccccc45)C(=O)NC3=O)c3ccccc32)c1 ?
33.9

What measured activity at 5 µM goes with O=C1NC(=O)C(c2cn(CCCO)c3ncccc23)=C1c1cnccn1 ?
110

What measured activity at 5 µM goes with COC(=O)c1cncc(-n2cc(C3=C(c4nn(CCO)c5ccccc45)C(=O)NC3=O)c3cc(Cl)ccc32)c1 ?
116

New cases:
What measured activity at 5 µM goes with O=C1NC(=O)C(c2nn(CCO)c3ccccc23)=C1c1cn(-c2cncnc2)c2ccccc12 ?
45.8

What measured activity at 5 µM goes with CN(C)c1ccc(-n2cc(C3=C(c4nn(CCO)c5ccccc45)C(=O)NC3=O)c3cc(Cl)ccc32)cn1 ?
101

###

- System: Sox17 expression in human embryonic stem cells (H9 line)
- test protocol: High content screening assay: Sox17 protein expression (differentiation)
- Assay type: cell-based
- run parameters: 10 μM test compound with 100 ng/ml activin A on days 1-2; H9; total intensity by IN Cell Analyzer; strong and moderate hits
Measured SOX17 Expression, Fold over Wnt 3a/AA control, listed per entry.

Worked examples, 3 molecules total:
Request - read-out SOX17 Expression, Fold over Wnt 3a/AA control | tested on Sox17 expression in human embryonic stem cells (H9 line) | molecule O=C1NC(=O)C(c2cn(-c3cccnc3)c3ccccc23)=C1c1n[nH]c2ccccc12
1.0080 Fold over Wnt 3a/AA control

Request - read-out SOX17 Expression, Fold over Wnt 3a/AA control | tested on Sox17 expression in human embryonic stem cells (H9 line) | molecule O=C1NC(=O)C2=C1c1cn(c3ccccc13)CCOCCOCCOCCOCCn1cc2c2ccccc21
1.0630 Fold over Wnt 3a/AA control

Request - read-out SOX17 Expression, Fold over Wnt 3a/AA control | tested on Sox17 expression in human embryonic stem cells (H9 line) | molecule COCCN1CCOCCn2cc(c3ccccc32)C2=C(C(=O)NC2=O)c2nn(c3ccccc23)CCOCC1
0.6864 Fold over Wnt 3a/AA control

// next item, SOX17 Expression, Fold over Wnt 3a/AA control requested
Request - read-out SOX17 Expression, Fold over Wnt 3a/AA control | tested on Sox17 expression in human embryonic stem cells (H9 line) | molecule O=C1NC(=O)C2=C1c1cn(c3ncccc13)CCOCCOCCOCCn1cc2c2cccnc21 [Compound 2]
0.7921 Fold over Wnt 3a/AA control

###

Measured Raw data (duplicate), second replicate, listed per entry.
- Tested on: cells expressing pluripotency markers derived from human embryonic stem cells
- test protocol: MTS viability (toxicity) assay of cells expressing pluripotency markers
- Format: cell-based
- run parameters: MTS viability assay raw reading, replicate 2
Write no unit; give the number alone.

Worked examples, 5 compounds total:
What measured Raw data (duplicate), second replicate goes with O=C1NC(=O)C(c2cccc3c2sc2ccccc23)=C1c1cn(CCCO)c2ncccc12 ?
0.624

What measured Raw data (duplicate), second replicate goes with O=C1NC(=O)C2=C1c1cn(c3ccccc13)CCOCCOCCOCCn1cc2c2ccccc21 ?
0.661

What measured Raw data (duplicate), second replicate goes with COc1ccccc1C1=C(c2cn(-c3cccnc3)c3ccccc23)C(=O)NC1=O ?
0.724

What measured Raw data (duplicate), second replicate goes with O=C1NC(=O)C2=C1c1cn(c3ccccc13)CCOCCOCCN(Cc1ccncc1)CCn1cc2c2ccccc21 ?
0.682

What measured Raw data (duplicate), second replicate goes with O=C1NC(=O)C2=C1c1cn(c3ccccc13)CCOCCOCCN(Cc1cccs1)CCn1cc2c2ccccc21 ?
0.634

// next item, Raw data (duplicate), second replicate requested
What measured Raw data (duplicate), second replicate goes with CN(C)c1cccc(-n2cc(C3=C(c4nn(CCO)c5ccccc45)C(=O)NC3=O)c3ccccc32)c1 ?
0.822

###

Measured viability at 4 days, 10 μM, listed per entry.
- test protocol: MTS viability (toxicity) assay of cells expressing pluripotency markers
- Format: cell-based, human
- run parameters: human, cmpd conc 10 μM; MTS on day 4; relative to Activin A + Wnt3a positive control; read-out: % Control (percentage viability of control)
Please state the value followed by its unit.

What measured viability at 4 days, 10 μM goes with CN(CCO)CCCn1nc(C2=C(c3cn(-c4cccnc4)c4ccccc34)C(=O)NC2=O)c2ccccc21 [Compound 198] ?
49.7%

What measured viability at 4 days, 10 μM goes with O=C1NC(=O)C2=C1Nc1cccc(c1)OCCC/C=C\CCCOc1cccc2c1 [Compound 233] ?
1.5%

What measured viability at 4 days, 10 μM goes with O=C1NC(=O)C(c2cn(CCOCCOCCNC3CCCc4ccccc43)c3ccccc23)=C1c1cn(CCNC2CCCc3ccccc32)c2ccccc12 (stereo not shown) [Compound 144] ?
2.4%

New cases:
What measured viability at 4 days, 10 μM goes with CN(C)c1ccc(-n2cc(C3=C(c4nn(CCO)c5ccccc45)C(=O)NC3=O)c3cc(Cl)ccc32)cn1 [Compound 148] ?
3.5%
